Target: Heat shock protein HSP90 (Homo sapiens) (UniProt P07900+P08238)
Details: HeLa, dose 25-50 nM
Description: Inhibition of HSP90 in human HeLa cells assessed as stimulation of intracellular HSP70 expression at 25 to 50 nM by Western blotting analysis
Active and inactive are the calls of the source. The calls are words filed in the database; no cut-off is given here.
Value type: inhibition

Smiles representation | Measured on | Recorded result
CC1(C)CC(=O)c2c(C(F)(F)F)nn(-c3ccc(C(N)=O)c(N[C@H]4CC[C@H](NC(=O)CCCCCP(=O)(O)O)CC4)c3)c2C1 | Heat shock protein HSP90 (Homo sapiens) (UniProt P07900+P08238) | inactive
CC1(C)CC(=O)c2c(C(F)(F)F)nn(-c3ccc(C(N)=O)c(N[C@H]4CC[C@H](NCCCCS(=O)(=O)O)CC4)c3)c2C1 | Heat shock protein HSP90 (Homo sapiens) (UniProt P07900+P08238) | inactive
Cc1nn(-c2ccc(C(N)=O)c(N[C@H]3CC[C@H](NCCCCS(=O)(=O)O)CC3)c2)c2c1C(=O)CC(C)(C)C2 | Heat shock protein HSP90 (Homo sapiens) (UniProt P07900+P08238) | inactive
Cc1nn(-c2ccc(C(N)=O)c(N[C@H]3CC[C@H](NC(=O)CCCCCP(=O)(O)O)CC3)c2)c2c1C(=O)CC(C)(C)C2 | Heat shock protein HSP90 (Homo sapiens) (UniProt P07900+P08238) | inactive

Values compiled from ChEMBL document CHEMBL6083218.
